Recorded values, source the OPERA property sets (Mansouri et al. 2018).

Consider the following compounds and their measured logP readings.
Output spec: single numeric token, no unit.

Observe how each entry below is paired with its result.
compound | logP
CC(=O)NO | -1.59
O=C(O)CONC(=O)c1ccccc1 | -0.27
CCCCC(=O)OC | 1.96
CN(C)C(N(C)C)=S(I)c1ccccc1 (stereo not given) | -0.68
CCC(C)c1ccc(O)cc1 (stereo not given) | 3.08
CC(=O)Nc1cccc(OCC(=O)O)c1 | 0.48

Inquiry: Endpoint output: logP of COc1ccc(C(=O)NN)cc1 . Value?
Reply text: 0.25

Inquiry: Endpoint output: logP of Cc1cc(Cl)ccc1O . Value?
Reply text: 2.78

Inquiry: Endpoint output: logP of O=C1Nc2ccccc2C1=O . Value?
Reply text: 0.83

Inquiry: Endpoint output: logP of c1ccc(OCCOc2ccccc2)cc1 . Value?
Reply text: 3.81

Inquiry: Endpoint output: logP of CCCCCOC(=O)c1ccc(S(N)(=O)=O)cc1 . Value?
Reply text: 2.71
